B1: VH:VL chains; a variant is named by its letters at X, in order (parent)
chain 1: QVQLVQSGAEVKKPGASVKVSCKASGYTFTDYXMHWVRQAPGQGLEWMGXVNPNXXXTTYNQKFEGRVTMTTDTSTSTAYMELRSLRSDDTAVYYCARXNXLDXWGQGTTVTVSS
chain 2: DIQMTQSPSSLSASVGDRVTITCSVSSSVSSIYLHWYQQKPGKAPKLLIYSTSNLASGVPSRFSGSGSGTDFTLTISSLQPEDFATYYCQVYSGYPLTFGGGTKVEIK

variants of: B1; assay: yeast display scFab, FACS + sequencing; details: with MET
The list shows a part of the results. No count for the full screen is at hand.
assayMetric: antigen binding call

// below: answered variants
YRGRSFGV | binds
FRGRDSVA | binds
FGGENDGD | no binding
FGAKGSSS | no binding
VRGRDFGV | no binding
YRAGGYVA | binds
YRAGGSVA | binds
YAGAAAVD | no binding
YRAGDSSS | binds
DAKKNASF | no binding

Query string: Param item = ARKTGAGA ; retrieve measured antigen binding call.
Result string: no binding

Query string: Same thing, different variant: DRTGDDVA
Result string: no binding

Query string: What do we get for SAAGADWS ?
Result string: no binding

Query string: Next up: DRGRDFGV
Result string: no binding

Query string: Now consider STTRGAVA .
Result string: no binding

Query string: Query VEGAAAGS next
Result string: no binding

Query string: Also YKGRGYSY , if possible.
Result string: no binding

Query string: Try the variant YRAGGFVA
Result string: binds

Query string: Next up: YRGAASAV
Result string: binds

Query string: Would you mind doing ARRRGAWY as well?
Result string: binds
